Target: Sodium-dependent serotonin transporter (Rattus norvegicus, UniProt P31652)
Sequence (P31652 whole entry): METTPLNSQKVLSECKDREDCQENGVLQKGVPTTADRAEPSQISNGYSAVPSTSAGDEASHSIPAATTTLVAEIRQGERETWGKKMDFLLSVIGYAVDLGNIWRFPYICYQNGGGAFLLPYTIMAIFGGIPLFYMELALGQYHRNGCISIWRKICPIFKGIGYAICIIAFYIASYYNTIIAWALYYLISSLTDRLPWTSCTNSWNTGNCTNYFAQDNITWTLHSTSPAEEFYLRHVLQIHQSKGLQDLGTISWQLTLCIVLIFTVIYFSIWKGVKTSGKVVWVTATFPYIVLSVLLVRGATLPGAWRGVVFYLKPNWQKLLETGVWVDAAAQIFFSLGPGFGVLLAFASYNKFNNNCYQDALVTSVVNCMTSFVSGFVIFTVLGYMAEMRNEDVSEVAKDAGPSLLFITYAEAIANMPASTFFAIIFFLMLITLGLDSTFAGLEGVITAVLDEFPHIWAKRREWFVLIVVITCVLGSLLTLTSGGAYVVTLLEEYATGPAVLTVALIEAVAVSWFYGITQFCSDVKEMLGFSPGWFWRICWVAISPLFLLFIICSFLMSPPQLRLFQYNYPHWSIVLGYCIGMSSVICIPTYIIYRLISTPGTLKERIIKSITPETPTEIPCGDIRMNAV
Assay: Affinity at the 5-HT reuptake site labeled with [3H]paroxetine using rat frontal cortex membranes
Metric Name: log10(Ki) (log10 of the value in nM)
Please interpret these as log10 of Ki where Ki is in nM.

Worked cases, log10(Ki) given:
INSERT INTO assay_data (chem_smiles, metric_name, observed_result) VALUES
  ('COc1cccc2sc([C@@H]3CCN(C[C@H](O)COc4cccc5[nH]c(C(N)=O)cc45)[C@@H](C)C3)cc12', 'log10(Ki)', -0.25),
  ('COc1cccc2sc([C@@H]3C[C@H]4CC[C@@H](C3)N4C[C@H](O)COc3cccc4[nH]c(C(N)=O)cc34)cc12', 'log10(Ki)', -0.43),
  ('Cc1cc2c(OC[C@@H](O)CN3CC[C@@H](c4cc5ccccc5s4)C[C@@H]3C)cccc2[nH]1', 'log10(Ki)', -0.28),
  ('Cc1cc2c(OC[C@@H](O)CN3CC[C@@H](c4cc5cc(Cl)ccc5s4)C[C@@H]3C)cccc2[nH]1', 'log10(Ki)', 0.01),
  ('COc1cccc2sc([C@H]3CCN(C[C@H](O)COc4cccc5oc(C)cc45)[C@@H](C)C3)cc12', 'log10(Ki)', 1.88);

What does the data say about its log10(Ki)? Entry: `COc1cccc2sc([C@H]3CCN(C[C@H](O)COc4cccc5[nH]c(C)cc45)[C@H](C)C3)cc12`
0.52

Next compound: `COc1cccc2sc([C@@H]3CCN(C[C@H](O)COc4cccc5[nH]c(C)cc45)[C@H](C)C3)cc12`
1.46

Likewise for `COc1cccc2sc([C@@H]3CCN(C[C@H](O)COc4cccc5[nH]c(C(N)=O)cc45)[C@H](C)C3)cc12` ?
1.21

Entry source: ChEMBL document CHEMBL1136348
